system: HuH7 cells; test: MTT antiproliferative (growth inhibition) assay on HuH7 cells; format: cell-based, human; conditions: Homo sapiens, Huh-7, MTT, 72 h incubation, mean and SD of 3 or more independent determinations (Tables 1-8), read-out: IC 50
# class assignment by measured IC50: low bin = under 7 µM, mid bin = from 7 µM up to 20 µM, high bin = 20 µM and over

O=C1Nc2cc(F)ccc2/C1=C\c1cccc(OC(F)(F)F)c1 ... mid bin
O=C1Nc2ccc(F)cc2C1=Nc1cccc(C(F)(F)F)c1 ... high bin
Cc1cccc(/C=C2/C(=O)Nc3ccc(F)cc32)c1 ... high bin
O=C1Nc2cc(Cl)ccc2/C1=C\c1cccc(F)c1 ... mid bin
O=C1Nc2cc(Cl)ccc2C1=Cc1ccc(F)c(F)c1 ... mid bin
COc1ccc(/C=C2/C(=O)Nc3cc(Cl)ccc32)cc1 ... high bin
CN(C)S(=O)(=O)c1cccc(/C=C2/C(=O)Nc3cc(Cl)ccc32)c1 ... low bin
O=C1Nc2ccc(F)cc2/C1=C\c1ccc(F)c(F)c1 ... mid bin
Cc1ccccc1/C=C1/C(=O)Nc2ccc(F)cc21 ... mid bin
O=C1Nc2ccc(F)c(F)c2/C1=C/c1ccccc1 ... high bin
COc1cccc(/C=C2/C(=O)Nc3ccc(F)cc32)c1 ... mid bin
CNS(=O)(=O)c1ccc(/C=C2/C(=O)Nc3cc(Cl)ccc32)cc1 ... mid bin
O=C1Nc2cc(F)c(F)cc2/C1=C\c1cccc(OC(F)(F)F)c1 ... low bin
COc1ccc2c(c1)NC(=O)/C2=C/c1ccc(C(F)(F)F)cc1 ... high bin
CNS(=O)(=O)c1cccc(C=C2C(=O)Nc3cc(F)c(F)cc32)c1 ... low bin
CN1C(=O)/C(=C/c2cccc(C(F)(F)F)c2)c2ccc(Cl)cc21 [Compound 8-5] ... low bin
Cc1ccc(/C=C2/C(=O)Nc3ccc(F)cc32)cc1 ... high bin
O=C1Nc2ccccc2C1=Nc1cccc(C(F)(F)F)c1 ... high bin
